- system.tested: T1, 4H2839-bN
- T1 chain: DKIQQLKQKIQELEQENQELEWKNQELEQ
- assay.method.text: two-hybrid library CCNG1;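 also: natural log of median RNA to DNA barcode read ratio; higher means stronger binding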
value.type: interaction score

Check out these entries, answers already filled in.
> print(dat)
                                     binder         value.type  reported
1  DKIQQLEQKNQELKQEIQELEWKNQELEQ [4H2503-bN]  interaction score    -0.436
2  DKIQQLKQENQELEQEIQELEWENQELKQ [4H2692-bN]  interaction score    -0.832
3  DEIQQLEQEIQELKQKNQELKWEIQELEQ [4H121-bN]  interaction score    -0.184

P. DKIQQLEQEIQELKQENQELKWKNQELEQ [4H2143-bN]
Q. DKIQQLEQKNQELEQEIQELEWKIQELKQ [4H2438-bN]
R. DKIQQLEQEIQELKQENQELEWKIQELKQ [4H2134-bN]
In: Sequence the entries by interaction score, beginning with the highest number. Provide your answer as the labels ordered per the instruction.
Out: R, P, Q

a. DEIQQLEQENQELEQKNQELEWKIQELKQ [4H182-bN]
b. DKIQQLEQKNQELEQKIQELKWEIQELEQ [4H2473-bN]
In: Lab note: check whether a or b has the lower measured interaction score. Mark your selection by writing its label.
Out: b
(b: -1.21, a: 0.367)

The origin of these recorded values is paper PMC10397247.
